Reference source: ChEMBL document CHEMBL1961873

Biological target: Tyrosine-protein kinase Lck (Homo sapiens) (UniProt P06239);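 also: reported Lck percent inhibition is a mean value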
Sequence (P06239 2-509 limits assumed): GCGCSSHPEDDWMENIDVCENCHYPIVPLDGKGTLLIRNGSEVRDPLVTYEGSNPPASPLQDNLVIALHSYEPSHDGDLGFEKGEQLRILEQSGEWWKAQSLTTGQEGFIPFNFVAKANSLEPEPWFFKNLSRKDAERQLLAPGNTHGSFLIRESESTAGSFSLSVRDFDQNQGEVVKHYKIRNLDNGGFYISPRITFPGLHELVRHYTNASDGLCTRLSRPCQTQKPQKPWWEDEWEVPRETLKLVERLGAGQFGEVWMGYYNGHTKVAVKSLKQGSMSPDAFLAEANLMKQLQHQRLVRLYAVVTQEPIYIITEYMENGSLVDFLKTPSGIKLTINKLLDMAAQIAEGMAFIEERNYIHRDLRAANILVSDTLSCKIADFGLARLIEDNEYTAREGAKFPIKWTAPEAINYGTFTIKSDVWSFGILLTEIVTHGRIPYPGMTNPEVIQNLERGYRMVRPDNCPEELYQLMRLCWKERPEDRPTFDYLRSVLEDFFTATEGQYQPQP
Conditions: at 1 µM
Reported Endpoint: inhibition (%)
Number in %, nothing else.

Answered examples (4):
{"columns": ["Query Smiles", "Measure Unit", "Value Reported"],
 "data": [
  ["FC(F)(F)c1ccc(-c2nn3ncccc3c2-c2ccnc(Nc3ccc4c(c3)OCCO4)n2)cc1", "%", 42.5],
  ["NS(=O)(=O)c1ccc(NC=C2C(=O)Nc3ccc4ncsc4c32)cc1", "%", 30.9],
  ["Cc1ccc2c(-c3ccnc(Nc4cccc(C(F)(F)F)c4)n3)c(-c3ccccc3)nn2n1", "%", 42],
  ["CCn1c(-c2nonc2N)nc2ccc(F)cc21", "%", 2.85]
]}

For CN(C)C(=O)O[C@H]1CN[C@H](C#Cc2cc3ncnc(Nc4ccc(OCc5cccc(F)c5)c(Cl)c4)c3s2)C1 , what is its reported inhibition?
3.02

###

System: Tyrosine-protein kinase ABL1 (Homo sapiens), P00519 [T315I]
Conditions: at 1 µM
Reported Endpoint: inhibition (%)
Number in %, nothing else.

Answered examples (5):
{"columns": ["Query Smiles", "Tested Target", "inhibition / %"],
 "data": [
  ["COc1cc2ncn(-c3cc(OCc4ccccc4S(C)(=O)=O)c(C#N)s3)c2cc1OC", "Tyrosine-protein kinase ABL1 (Homo sapiens), P00519 [T315I]", 32.6],
  ["Nc1nccc(C#Cc2cncnc2Nc2ccc(OCc3cccc(F)c3)c(Cl)c2)n1", "Tyrosine-protein kinase ABL1 (Homo sapiens), P00519 [T315I]", 2.7],
  ["N#Cc1cccc(Nc2nccc(-c3cnn4ncccc34)n2)c1", "Tyrosine-protein kinase ABL1 (Homo sapiens), P00519 [T315I]", 34.2],
  ["NS(=O)(=O)c1cccc(-c2cc3ccncc3cc2OCc2ccccc2)c1", "Tyrosine-protein kinase ABL1 (Homo sapiens), P00519 [T315I]", 2.66],
  ["NS(=O)(=O)c1ccc(N/N=C2\\C(=O)Nc3ccc(Cl)cc32)cc1", "Tyrosine-protein kinase ABL1 (Homo sapiens), P00519 [T315I]", 11.8]
]}

For CC(C)c1ccc2c(c1)NC(=O)/C2=N/Nc1ccc(S(N)(=O)=O)cc1 , what is its reported inhibition?
6.52

###

# inhibition listing for each entry below
Molecular target: Vascular endothelial growth factor receptor 3 (Homo sapiens) (UniProt P35916)
Sequence (P35916 whole entry): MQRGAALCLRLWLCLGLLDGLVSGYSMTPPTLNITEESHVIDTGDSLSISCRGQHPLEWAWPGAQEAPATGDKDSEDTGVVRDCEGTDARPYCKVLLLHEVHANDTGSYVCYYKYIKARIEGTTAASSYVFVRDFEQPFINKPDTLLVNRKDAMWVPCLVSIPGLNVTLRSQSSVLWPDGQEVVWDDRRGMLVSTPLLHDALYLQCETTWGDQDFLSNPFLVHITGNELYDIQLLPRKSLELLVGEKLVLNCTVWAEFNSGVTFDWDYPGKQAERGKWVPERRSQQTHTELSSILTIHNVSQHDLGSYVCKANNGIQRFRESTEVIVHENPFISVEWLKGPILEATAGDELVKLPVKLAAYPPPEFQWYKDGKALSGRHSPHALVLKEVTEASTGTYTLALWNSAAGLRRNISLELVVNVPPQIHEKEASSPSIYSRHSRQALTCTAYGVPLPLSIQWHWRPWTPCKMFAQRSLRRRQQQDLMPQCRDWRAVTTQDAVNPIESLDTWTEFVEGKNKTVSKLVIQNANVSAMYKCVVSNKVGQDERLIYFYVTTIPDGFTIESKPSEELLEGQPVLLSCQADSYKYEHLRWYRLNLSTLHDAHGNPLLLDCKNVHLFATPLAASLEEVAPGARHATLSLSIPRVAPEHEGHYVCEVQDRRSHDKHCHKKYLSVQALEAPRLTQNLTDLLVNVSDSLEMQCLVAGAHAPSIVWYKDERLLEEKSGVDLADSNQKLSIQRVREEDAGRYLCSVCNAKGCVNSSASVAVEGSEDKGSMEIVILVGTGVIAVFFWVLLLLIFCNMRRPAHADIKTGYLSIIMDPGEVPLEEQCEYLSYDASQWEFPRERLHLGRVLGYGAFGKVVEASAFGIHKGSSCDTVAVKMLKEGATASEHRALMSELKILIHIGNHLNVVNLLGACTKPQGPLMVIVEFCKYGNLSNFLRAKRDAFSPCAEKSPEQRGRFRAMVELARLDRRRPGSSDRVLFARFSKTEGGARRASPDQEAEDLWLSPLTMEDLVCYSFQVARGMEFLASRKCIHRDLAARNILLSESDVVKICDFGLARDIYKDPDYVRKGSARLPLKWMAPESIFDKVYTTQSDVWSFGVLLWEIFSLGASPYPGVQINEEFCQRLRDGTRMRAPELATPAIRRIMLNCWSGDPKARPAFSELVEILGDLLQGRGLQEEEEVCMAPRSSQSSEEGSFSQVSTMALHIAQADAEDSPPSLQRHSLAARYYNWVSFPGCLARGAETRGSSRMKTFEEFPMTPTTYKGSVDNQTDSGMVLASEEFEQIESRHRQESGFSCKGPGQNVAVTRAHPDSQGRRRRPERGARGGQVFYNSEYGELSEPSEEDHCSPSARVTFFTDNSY
Conditions: at 0.1 µM
Description: GSK_PKIS: FLT4 mean inhibition at 0.1 uM [Nanosyn]
Number in %, nothing else.

Answered examples (5):
{"columns": ["Query Smiles", "Value Reported"],
 "data": [
  ["N#Cc1cccc(Nc2nccc(-c3cnn4ncccc34)n2)c1", 5.06],
  ["COc1cc2ncnc(Nc3ccc(C)c(O)c3)c2cc1OC", 97.5],
  ["CN(C)C(=O)O[C@@H]1CN[C@@H](C#Cc2cc3ncnc(Nc4ccc(OCc5cccc(F)c5)c(Cl)c4)c3s2)C1", -0.2],
  ["CCn1c(-c2nonc2N)nc2c(C#CC(C)(C)O)nc(OCCNC)cc21", 1.76],
  ["COc1cc2ncnc(Nc3ccc4c(cnn4Cc4ccccc4)c3)c2cc1OC", 4.91]
]}

For CN1CCN(C(=O)c2ccc(NC(=O)Nc3ccc(N(C)c4ccnc(Nc5ccc(CS(C)(=O)=O)cc5)n4)cc3)cc2)CC1 , what is its reported inhibition?
8.95

For COC(=O)Nc1nc2cc(Oc3ccc(NC(=O)Nc4cccc(Br)c4)cc3)ccc2[nH]1 , what is its reported inhibition?
3.16

For Cc1ccc(O)cc1Nc1ccnc2ccc(S(C)(=O)=O)cc12 , what is its reported inhibition?
21.3

For COc1cc2ncn(-c3cc(OCc4ccccc4S(C)(=O)=O)c(C#N)s3)c2cc1OC , what is its reported inhibition?
26.8
